For each record, write down the corresponding growth, % of control at 10 µM.
- Tested on: K562
- assay-text: Growth inhibition of human K562 cells at 10^-5 M relative to control
- Assay type: functional
- condition-details: values are per cent of control
Numbers only, in %.

[
  {
    "query-smiles": "CCN(CC)CCCNc1ncnc2c1ncn2[C@H]1C[C@H]2[C@H](CO)[C@@H]1C[C@@H]2Cl",
    "result-unit": "%",
    "growth, % of control at 10 µM": 106
  },
  {
    "query-smiles": "CN(C)c1ncnc2c1ncn2[C@H]1C[C@H]2[C@H](CO)[C@@H]1C[C@@H]2Cl",
    "result-unit": "%",
    "growth, % of control at 10 µM": 91
  }
]

Provide each entry's growth, % of control at 10 µM from the list below.
1. OC[C@H]1[C@@H]2C[C@H](n3cnc4c(NCCc5ccccc5)ncnc43)[C@H]1C[C@@H]2Cl
2. Nc1ncnc2c1ncn2[C@H]1C[C@H]2[C@H](CO)[C@@H]1C[C@@H]2Cl
3. CN1CCN(c2ncnc3c2ncn3[C@H]2C[C@H]3[C@H](CO)[C@@H]2C[C@@H]3Cl)CC1
4. OC[C@H]1[C@@H]2C[C@H](n3cnc4c(N5CCOCC5)ncnc43)[C@H]1C[C@@H]2Cl

Resp:
1: 91.1; 2: 97.1; 3: 107; 4: 90.7

Would you mind giving growth, % of control at 10 µM for every compound in the list below?
1. CN(C)c1ncnc2c1ncn2[C@H]1C[C@@H]2C=C[C@H]1[C@H]2CO
2. OC[C@H]1[C@@H]2C[C@H](n3cnc4c(NC5CC5)ncnc43)[C@H]1C[C@@H]2Cl
3. OC[C@H]1[C@@H]2C[C@H](n3cnc4c(NC5CCCC5)ncnc43)[C@H]1C[C@@H]2Cl

Resp:
1: 90; 2: 95.8; 3: 93.1

* * *

Record form. Attribute: growth, % of control at 10 µM. Fill in for each entry.
- System: NCI-H322M
- assay-text: Growth inhibition of human NCI-H322M cells at 10^-5 M relative to control
- Type: functional
- condition-details: values are per cent of control
Numbers only, in %.

[
  {
    "query-smiles": "CN(C)c1ncnc2c1ncn2[C@H]1C[C@H]2[C@H](CO)[C@@H]1C[C@@H]2Cl",
    "val": 96.8
  },
  {
    "query-smiles": "OC[C@H]1[C@@H]2C[C@H](n3cnc4c(N5CCOCC5)ncnc43)[C@H]1C[C@@H]2Cl",
    "val": 100
  }
]

Please look at the items below and tell me growth, % of control at 10 µM for each one, in order.
1. OC[C@H]1[C@@H]2C[C@H](n3cnc4c(NC5CC5)ncnc43)[C@H]1C[C@@H]2Cl
2. Nc1ncnc2c1ncn2[C@H]1C[C@H]2[C@H](CO)[C@@H]1C[C@@H]2Cl

Resp:
90
102

* * *

- System: HCT-116
- assay-text: Growth inhibition of human HCT116 cells at 10^-5 M relative to control
- Assay type: functional
- condition-details: values are per cent of control
observation-type: growth, % of control at 10 µM (%)
Give bare numbers, in %.

[
  {
    "query-smiles": "CN(C)c1ncnc2c1ncn2[C@H]1C[C@H]2[C@H](CO)[C@@H]1C[C@@H]2Cl",
    "result-unit": "%",
    "growth, % of control at 10 µM": 101
  },
  {
    "query-smiles": "CCN(CC)CCCNc1ncnc2c1ncn2[C@H]1C[C@H]2[C@H](CO)[C@@H]1C[C@@H]2Cl",
    "result-unit": "%",
    "growth, % of control at 10 µM": 98.5
  },
  {
    "query-smiles": "OC[C@H]1[C@@H]2C[C@H](n3cnc4c(NCCc5ccccc5)ncnc43)[C@H]1C[C@@H]2Cl",
    "result-unit": "%",
    "growth, % of control at 10 µM": 101
  },
  {
    "query-smiles": "OC[C@H]1[C@@H]2C[C@H](n3cnc4c(NC5CC5)ncnc43)[C@H]1C[C@@H]2Cl",
    "result-unit": "%",
    "growth, % of control at 10 µM": 96.5
  },
  {
    "query-smiles": "Nc1ncnc2c1ncn2[C@H]1C[C@H]2[C@H](CO)[C@@H]1C[C@@H]2Cl",
    "result-unit": "%",
    "growth, % of control at 10 µM": 89.2
  }
]

Each molecule below has a recorded value; state its growth, % of control at 10 µM.
1. OC[C@H]1[C@@H]2C[C@H](n3cnc4c(N5CCOCC5)ncnc43)[C@H]1C[C@@H]2Cl
2. CN1CCN(c2ncnc3c2ncn3[C@H]2C[C@H]3[C@H](CO)[C@@H]2C[C@@H]3Cl)CC1
3. OC[C@H]1[C@@H]2C[C@H](n3cnc4c(NC5CCCC5)ncnc43)[C@H]1C[C@@H]2Cl
4. CN(C)c1ncnc2c1ncn2[C@H]1C[C@@H]2C=C[C@H]1[C@H]2CO

Resp:
1. 89.6
2. 101
3. 99.8
4. 94.8
